- measurement_target: JAK3 (Homo sapiens)
- Construct: purchased Thermo fisher PV3855
- Sequence (P52333 781-1124 limits assumed): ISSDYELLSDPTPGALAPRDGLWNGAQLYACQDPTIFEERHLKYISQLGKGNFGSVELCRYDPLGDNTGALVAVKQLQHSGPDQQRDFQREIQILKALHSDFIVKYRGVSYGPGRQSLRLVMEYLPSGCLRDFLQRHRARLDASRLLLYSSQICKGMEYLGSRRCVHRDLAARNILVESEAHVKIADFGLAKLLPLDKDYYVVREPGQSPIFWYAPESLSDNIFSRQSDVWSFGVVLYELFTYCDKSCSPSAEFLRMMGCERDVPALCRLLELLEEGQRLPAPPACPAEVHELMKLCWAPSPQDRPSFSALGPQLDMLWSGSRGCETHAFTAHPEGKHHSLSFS
- protocol_notes: JAK3 biochemical assay (ADP-GLO Kinase Assay)
- measurement_context: ratio of JAK3 IC50 to HPK1 IC50; first testing facility
Cut-off 80 on JAKs/HPK1 IC50 Ratio, B*: below means 1 (yes), at or above means 0 (no).

stdin: Hello, I'm reviewing records and need to know if JAKs/HPK1 IC50 Ratio, B* of COc1cc2c(cc1Nc1ncc(Cl)c(N3CC(C)(C(=O)O)c4ccccc43)n1)CNCC2 (stereo not shown) is below 80. Could you check?
stdout: 1 (yes)

stdin: Hello, I'm reviewing records and need to know if JAKs/HPK1 IC50 Ratio, B* of COc1ccc2c(c1)C(C(=O)O)CN2c1nc(Nc2cc3c(cc2OC)CCN(C)C3)ncc1Cl (stereo not shown) is below 80. Could you check?
stdout: 1 (yes)

stdin: Hello, I'm reviewing records and need to know if JAKs/HPK1 IC50 Ratio, B* of `COc1cc2c(cc1Nc1ncc3cc(C(=O)O)n(-c4ccccc4)c3n1)CN(C)CC2` is below 80. Could you check?
stdout: 0 (no)

stdin: Hello, I'm reviewing records and need to know if JAKs/HPK1 IC50 Ratio, B* of `COc1cc2c(cc1Nc1ncc(Cl)c(N3CCc4cc(Cl)ccc43)n1)CN(C)CC2` is below 80. Could you check?
stdout: 1 (yes)

stdin: Hello, I'm reviewing records and need to know if JAKs/HPK1 IC50 Ratio, B* of `COc1cc2c(cc1Nc1ncc(Cl)c(-n3cc(CC(=O)O)c4ccc(F)cc43)n1)CN(C)CC2` is below 80. Could you check?
stdout: 0 (no)

stdin: Hello, I'm reviewing records and need to know if JAKs/HPK1 IC50 Ratio, B* of COc1cc2c(cc1Nc1ncc(Cl)c(N3CC(S(C)(=O)=O)c4ccccc43)n1)CN(C)CC2 (stereo not shown) is below 80. Could you check?
stdout: 0 (no)

stdin: Hello, I'm reviewing records and need to know if JAKs/HPK1 IC50 Ratio, B* of CNC(=O)C1(C)CN(c2nc(Nc3cc4c(cc3OC)CCN(C)C4)ncc2Cl)c2ccccc21 (stereo not shown) is below 80. Could you check?
stdout: 0 (no)

stdin: Hello, I'm reviewing records and need to know if JAKs/HPK1 IC50 Ratio, B* of COc1cc2c(cc1Nc1ncc(Cl)c(N3CC(C)(CC(=O)O)c4ccc(F)cc43)n1)CN(C)CC2 (single isomer, unassigned) [Example 152] is below 80. Could you check?
stdout: 0 (no)

stdin: Hello, I'm reviewing records and need to know if JAKs/HPK1 IC50 Ratio, B* of `COc1cc2c(cc1Nc1ncc(Cl)c(-c3cn(CC(=O)O)c4ccccc34)n1)CN(C)CC2` is below 80. Could you check?
stdout: 0 (no)

stdin: Hello, I'm reviewing records and need to know if JAKs/HPK1 IC50 Ratio, B* of CCN1CCc2cc(OC)c(Nc3ncc(Cl)c(N4CC(C)(CC(=O)O)c5ccccc54)n3)cc2C1 (stereo not shown) is below 80. Could you check?
stdout: 0 (no)

stdin: Hello, I'm reviewing records and need to know if JAKs/HPK1 IC50 Ratio, B* of `COc1cc2c(cc1Nc1ncc(Cl)c(-n3cc(P(C)(C)=O)c4ccccc43)n1)CN(C)CC2` is below 80. Could you check?
stdout: 0 (no)

stdin: Hello, I'm reviewing records and need to know if JAKs/HPK1 IC50 Ratio, B* of `COc1cc2c(cc1Nc1ncc(Cl)c(N3CCC4(COC4)C3)n1)CN(C)CC2` is below 80. Could you check?
stdout: 1 (yes)

stdin: Hello, I'm reviewing records and need to know if JAKs/HPK1 IC50 Ratio, B* of `COc1cc2c(cc1Nc1ncc(Cl)c(-n3cc(NS(C)(=O)=O)c4ccccc43)n1)CN(C)CC2` is below 80. Could you check?
stdout: 0 (no)

stdin: Hello, I'm reviewing records and need to know if JAKs/HPK1 IC50 Ratio, B* of `COc1cc2c(cc1Nc1ncc(Cl)c(-n3cc(CC(N)=O)c4ccccc43)n1)CN(C)CC2` is below 80. Could you check?
stdout: 0 (no)

stdin: Hello, I'm reviewing records and need to know if JAKs/HPK1 IC50 Ratio, B* of COc1ccc2c(c1)N(c1nc(Nc3cc4c(cc3OC)CCN(C)C4)ncc1Cl)CC2C(=O)O (stereo not shown) is below 80. Could you check?
stdout: 0 (no)

This collection of values is drawn from patent US12612424B2.
